Task for the reader: assign each of the following compounds its reported log10(IC50).
# Test target: VEGF Receptor (KDR) (Homo sapiens, UniProt P35968)
# Sequence (P35968 20-1356): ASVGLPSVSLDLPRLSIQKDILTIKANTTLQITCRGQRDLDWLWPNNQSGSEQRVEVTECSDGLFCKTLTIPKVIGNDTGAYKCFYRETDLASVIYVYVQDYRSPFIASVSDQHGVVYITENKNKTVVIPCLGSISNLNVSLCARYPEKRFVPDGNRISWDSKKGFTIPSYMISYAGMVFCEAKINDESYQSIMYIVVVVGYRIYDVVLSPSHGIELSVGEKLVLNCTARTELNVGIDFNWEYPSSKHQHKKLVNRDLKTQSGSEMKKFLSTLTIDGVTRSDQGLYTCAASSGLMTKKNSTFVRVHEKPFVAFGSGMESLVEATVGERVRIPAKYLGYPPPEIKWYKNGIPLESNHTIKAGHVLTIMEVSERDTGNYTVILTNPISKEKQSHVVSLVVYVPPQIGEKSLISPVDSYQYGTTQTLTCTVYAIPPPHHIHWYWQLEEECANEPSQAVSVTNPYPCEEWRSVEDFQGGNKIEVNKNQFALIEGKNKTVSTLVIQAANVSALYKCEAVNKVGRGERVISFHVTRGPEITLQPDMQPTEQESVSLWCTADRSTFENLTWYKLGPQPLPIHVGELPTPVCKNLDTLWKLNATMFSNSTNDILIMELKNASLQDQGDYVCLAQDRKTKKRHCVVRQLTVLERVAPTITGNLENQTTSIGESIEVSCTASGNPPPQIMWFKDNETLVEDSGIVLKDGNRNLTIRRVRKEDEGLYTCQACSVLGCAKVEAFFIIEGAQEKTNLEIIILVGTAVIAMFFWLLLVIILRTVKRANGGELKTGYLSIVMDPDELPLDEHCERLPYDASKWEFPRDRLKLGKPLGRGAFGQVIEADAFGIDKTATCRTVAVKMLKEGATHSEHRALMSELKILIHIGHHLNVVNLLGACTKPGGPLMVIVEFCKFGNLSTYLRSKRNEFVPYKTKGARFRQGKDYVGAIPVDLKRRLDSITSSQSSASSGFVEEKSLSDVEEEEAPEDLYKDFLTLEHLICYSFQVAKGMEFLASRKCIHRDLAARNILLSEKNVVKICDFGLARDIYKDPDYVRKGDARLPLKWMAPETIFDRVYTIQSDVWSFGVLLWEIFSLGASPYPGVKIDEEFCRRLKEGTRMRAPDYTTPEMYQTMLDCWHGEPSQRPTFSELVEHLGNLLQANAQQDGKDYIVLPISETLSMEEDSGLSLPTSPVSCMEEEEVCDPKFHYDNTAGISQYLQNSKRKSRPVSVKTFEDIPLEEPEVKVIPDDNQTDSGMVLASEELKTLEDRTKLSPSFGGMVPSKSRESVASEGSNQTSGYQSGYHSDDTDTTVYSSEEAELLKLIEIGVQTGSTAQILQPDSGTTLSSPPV
Lab note - IC50 converted to log10 from values in nM.

*Q* Record request: log10(IC50) value, item CN1CCN(Cc2ccc(-c3cc4c(Nc5ccc(OCc6ccccc6)cc5)ncnc4[nH]3)cc2)CC1 [Example 18]
*A* 1.39

*Q* // log10(IC50) lookup, key: C[C@@H](Nc1ncnc2[nH]c(-c3ccc(CN4CCCC4)cc3)cc12)c1ccccc1 [Example 12]
*A* 2.14

*Q* Any idea what its log10(IC50) is? The compound is C[C@@H](Nc1ncnc2[nH]c(-c3ccc(CN4CCOCC4)cc3)cc12)c1ccccc1 [Example 15]
*A* 1.69

*Q* Report log10(IC50) for Fc1ccc(Nc2ncnc3[nH]c(-c4ccc(CNC5CCOCC5)cc4)cc23)cc1Cl [Example 8a] please.
*A* 1.23

*Q* Entry under review: CCN1CCN(Cc2ccc(-c3cc4c(Nc5ccc(F)c(Cl)c5)ncnc4[nH]3)cc2)CC1 [Example 3] . Reported log10(IC50)?
*A* 1.03

*Q* Recorded log10(IC50) of C[C@@H](Nc1ncnc2[nH]c(-c3ccc(CNC(=O)CN4CCN(C)CC4)cc3)cc12)c1ccccc1 [Example 43] , please.
*A* 1.71

*Q* Request the reported log10(IC50) associated with Cc1cccc(CNc2ncnc3[nH]c(-c4ccc(CN(C)C)cc4)cc23)c1 [107f^]
*A* 1.28

*Q* State the recorded log10(IC50) for this entry: CN1CCN(CC(=O)NCc2ccc(-c3cc4c(Nc5ccc(OCc6ccccc6)cc5)ncnc4[nH]3)cc2)CC1 [Example 52]
*A* 2.10

*Q* Request the reported log10(IC50) associated with C[C@@H](Nc1ncnc2[nH]c(-c3ccc(CNCCN4CCOCC4)cc3)cc12)c1ccccc1 [Example 16a]
*A* 1.79

====

Property label: melting point

*Q* Fill in the blank: the reported melting point of CCNCc1ccc(-c2cc3c(N[C@H](C)c4ccccc4)ncnc3[nH]2)cc1 [Example 16f] is ____.
*A* 236 to 238 °C

*Q* Which melting point is listed for Cc1ccc(Nc2ncnc3[nH]c(-c4ccc(CN5CCN(C)CC5)cc4)cc23)cc1O ?
*A* > 300 °C

*Q* Look up melting point for this compound: C[C@@H](Nc1ncnc2[nH]c(-c3ccc(CNC(=O)CN4CCCCC4)cc3)cc12)c1ccccc1
*A* 194 to 196 °C

*Q* Endpoint output: melting point of O=C(NCc1ccc(-c2cc3c(Nc4ccc(F)c(Cl)c4)ncnc3[nH]2)cc1)c1ccccn1 . Value?
*A* 340 to 342 °C

*Q* // melting point lookup, key: CCN(CC)CCC(=O)NCc1ccc(-c2cc3c(Nc4ccc(F)c(Cl)c4)ncnc3[nH]2)cc1
*A* 229 to 232 °C

*Q* For the compound CCN1CCN(Cc2ccc(-c3cc4c(NCc5cc(Cl)ccc5Cl)ncnc4[nH]3)cc2)CC1 , what melting point is on record?
*A* 249 to 251 °C

*Q* Which melting point is listed for C[C@@H](Nc1ncnc2[nH]c(-c3ccc(CN(CCO)CCO)cc3)cc12)c1ccccc1 ?
*A* 194 to 197 °C

*Q* Please look up its melting point: CN1CCN(Cc2ccc(-c3cc4c(Nc5ccc(OCc6ccccc6)cc5)ncnc4[nH]3)cc2)CC1
*A* 256 to 258 °C

====

Exercise: state measured melting point for each of the compounds provided.

*Q* // lookup melting point for C[C@@H](Nc1ncnc2[nH]c(-c3ccc(CN4CCNCC4)cc3)cc12)c1ccccc1 [Example 145]
*A* 240 to 242 °C

*Q* Name the reported melting point value associated with the compound Fc1ccc(Nc2ncnc3[nH]c(-c4cccc(CN5CCCCC5)c4)cc23)cc1Cl [Example 38]
*A* 233 to 235 °C

*Q* Which value of melting point has been reported for CN(C)Cc1ccc(-c2cc3c(Nc4ccc(OCc5ccccc5)cc4)ncnc3[nH]2)cc1 [Example 17] in the records?
*A* 272 to 274 °C

*Q* I would be grateful if you could share the reported melting point for CC1CN(Cc2cccc(-c3cc4c(N[C@H](C)c5ccccc5)ncnc4[nH]3)c2)CC(C)N1 (stereo partly drawn) [Example 32] .
*A* 128 to 130 °C

*Q* Any idea what its melting point is? The compound is CCN(CC)Cc1ccc(-c2cc3c(Nc4ccc(OCc5ccccc5)cc4)ncnc3[nH]2)cc1 [Example 21]
*A* 271 to 273 °C

*Q* Quick one: melting point of Fc1ccc(Nc2ncnc3[nH]c(-c4ccc(CNC5CCOCC5)cc4)cc23)cc1Cl [Example 8a] ?
*A* 288 to 290 °C

*Q* Look up melting point for this compound: Cl.Clc1cccc(Nc2ncnc3[nH]c(-c4ccc(CN5CCOCC5)cc4)cc23)c1
*A* 278 to 280 °C

*Q* What value of melting point has been recorded for this entry: COc1cc(CNc2ncnc3[nH]c(-c4ccc(CN5CCN(C)CC5)cc4)cc23)ccn1 [Example 125]
*A* 211 to 212 °C

*Q* Give its melting point value. Item: Fc1ccc(Nc2ncnc3[nH]c(-c4ccc(CNCCN5CCOCC5)cc4)cc23)cc1Cl [Example 8b]
*A* 224 to 226 °C

*Q* # input compound: C[C@@H](Nc1ncnc2[nH]c(-c3cccc(CN4CCCCC4)c3)cc12)c1ccccc1 [Example 30] ; wanted: its melting point
*A* 108 to 110 °C

*Q* Entry CN1CCN(CC(=O)NCc2ccc(-c3cc4c(Nc5ccc(F)c(Cl)c5)ncnc4[nH]3)cc2)CC1 [Example 50] has what melting point?
*A* 246 to 249 °C

*Q* Param item = CN(C)Cc1ccc(-c2cc3c(NCc4cc(Cl)ccc4Cl)ncnc3[nH]2)cc1 [Example 98] ; retrieve measured melting point.
*A* 254 to 257 °C

*Q* What value of measured melting point is listed for CN1CCN(Cc2ccc(-c3cc4c(NCc5cc(Cl)ccc5Cl)ncnc4[nH]3)cc2)CC1 [Example 102] ?
*A* 244 to 246 °C

*Q* I'd like to know its melting point. The compound in question is Clc1ccc(Cl)c(CNc2ncnc3[nH]c(-c4ccc(CN5CCCC5)cc4)cc23)c1 [Example 103]
*A* 266 to 268 °C

*Q* Need melting point, item C[C@@H](Nc1ncnc2[nH]c(-c3ccc(CN4CCN(C)CC4)cc3)cc12)c1ccccc1 [Example 9]
*A* 248 to 250 °C

*Q* May I ask what melting point has been recorded for CN(C)Cc1cccc(-c2cc3c(Nc4ccc(F)c(Cl)c4)ncnc3[nH]2)c1 [Example 33] ?
*A* 218 to 220 °C

*Q* What value of melting point has been reported for the following compound? CCN(CC)Cc1ccc(-c2cc3c(NCc4cc(Cl)ccc4Cl)ncnc3[nH]2)cc1 [Example 101]
*A* 255 to 257 °C

*Q* Quick one: melting point of CCN(CC)Cc1ccc(-c2cc3c(NCc4ccccc4Cl)ncnc3[nH]2)cc1 [Example 96] ?
*A* 257 to 258 °C

*Q* Entry Cc1cccc(CNc2ncnc3[nH]c(-c4ccc(CN5CCOCC5)cc4)cc23)c1 [Example 107e] : reported melting point = ?
*A* 259 to 261 °C

*Q* Query (compound): C[C@@H](Nc1ncnc2[nH]c(-c3ccc(CNCCN4CCOCC4)cc3)cc12)c1ccccc1 [Example 16a] ; field requested: melting point
*A* 222 to 224 °C

*Q* Query: melting point; subject: Clc1cccc(CNc2ncnc3[nH]c(-c4ccc(CN5CCCCC5)cc4)cc23)c1 [Example 85]
*A* 234 to 235 °C

*Q* Query: melting point; subject: Clc1cccc(CNc2ncnc3[nH]c(-c4ccc(CN5CCOCC5)cc4)cc23)c1 [Example 86]
*A* 253 to 254.5 °C

*Q* For the compound c1ccc(COc2ccc(Nc3ncnc4[nH]c(-c5ccc(CN6CCOCC6)cc5)cc34)cc2)cc1 [Example 20] , what melting point is on record?
*A* 272 to 274 °C

*Q* Please give the measured melting point for this compound: COc1ccc(Nc2ncnc3[nH]c(-c4ccc(CN5CCOCC5)cc4)cc23)cn1 [Example 111]
*A* 263 to 264 °C

*Q* Name the reported melting point value associated with the compound CCN(CC)CCNCc1ccc(-c2cc3c(N[C@H](C)c4ccccc4)ncnc3[nH]2)cc1 [Example 16c]
*A* 145 to 150 °C

*Q* Look up melting point for this compound: CCN1CCN(Cc2cccc(-c3cc4c(Nc5ccc(F)c(Cl)c5)ncnc4[nH]3)c2)CC1 [Example 35]
*A* 238 to 240 °C

*Q* If you can, please state the reported melting point value of CN1CCN(CC(=O)NCc2cccc(-c3cc4c(Nc5ccc(F)c(Cl)c5)ncnc4[nH]3)c2)CC1 [Example 65] .
*A* 214 °C

*Q* Data request, read-out melting point, for CN(C)Cc1ccc(-c2cc3c(NCc4ccccc4Cl)ncnc3[nH]2)cc1 [Example 90]
*A* 256 to 258 °C

*Q* Entry Cc1cccc(CNc2ncnc3[nH]c(-c4ccc(CN5CCCC5)cc4)cc23)c1 [Example 107h] : reported melting point = ?
*A* 241 to 243 °C

*Q* Suppose we examine the compound C[C@@H](Nc1ncnc2[nH]c(-c3ccc(CN4CCCCC4)cc3)cc12)c1ccccc1 [Example 14] ; what melting point value has been reported?
*A* 246 to 248 °C

*Q* Which melting point reading was recorded for the compound CC1CN(Cc2ccc(-c3cc4c(N[C@H](C)c5ccccc5)ncnc4[nH]3)cc2)CC(C)N1 (stereo partly drawn) [Example 16] ?
*A* 208 to 210 °C

*Q* Which measured melting point value corresponds to CN1CCN(Cc2ccc(-c3cc4c(Nc5cccc(Cl)c5)ncnc4[nH]3)cc2)CC1.Cl.Cl ?
*A* 227 to 229 °C

*Q* # lookup: melting point of CN1CCN(Cc2cccc(-c3cc4c(Nc5ccc(F)c(Cl)c5)ncnc4[nH]3)c2)CC1 [Example 37]
*A* 221 to 223 °C
